Just for reference, paper PMC7700809 is where these values come from.

- procedureDetails: In vivo plasma pharmacokinetics in beagle dogs
- condition: beagle, po, Dog, P.O. 5 mg/kg vs I.V. 1 mg/kg, read-out: F (oral bioavailability)
parameterMeasured: bioavailability (%)

>  <smilesString>
CC[C@H]1CN2CCc3cc(OC)c(OC)cc3[C@@H]2C[C@@H]1C[C@H]1NCCc2cc(OC)c(OC)cc21

>  <resultNumber>
74.2

$$$$

----------
- procedureDetails: in vivo
- condition: Sprague-Dawley, rat, lung, po, 1 mg/kg/day

>  <compound>
CC[C@H]1CN2CCc3cc(OC)c(OC)cc3[C@@H]2C[C@@H]1C[C@H]1NCCc2cc(OC)c(OC)cc21 [Emetine]

>  <concentration at 72 h>
4.89 µM

$$$$

----------
- procedureDetails: in vivo
- condition: mouse, iv, 1 mg/kg, MRT0-t, mice, I.V. 1 mg/kg, Liver

>  <smilesString>
CC[C@H]1CN2CCc3cc(OC)c(OC)cc3[C@@H]2C[C@@H]1C[C@H]1NCCc2cc(OC)c(OC)cc21

>  <MRT last / h>
6.67

$$$$

----------
- procedureDetails: In vivo plasma pharmacokinetics in rats
- Design: species or system Sprague-Dawley rats
- condition: Sprague-Dawley, iv, Rat, I.V. 1 mg/kg

>  <smilesString>
CC[C@H]1CN2CCc3cc(OC)c(OC)cc3[C@@H]2C[C@@H]1C[C@H]1NCCc2cc(OC)c(OC)cc21

>  <half-life, h>
4.46

$$$$

----------
- procedureDetails: In vivo plasma pharmacokinetics in rats
- Parameters: species or system Sprague-Dawley rats
- condition: Sprague-Dawley, po, Rat, P.O. 10 mg/kg, read-out: MRT0-∞
parameterMeasured: MRT inf (h)

>  <smilesString>
CC[C@H]1CN2CCc3cc(OC)c(OC)cc3[C@@H]2C[C@@H]1C[C@H]1NCCc2cc(OC)c(OC)cc21

>  <resultNumber>
16.2

$$$$

----------
- procedureDetails: In vivo plasma pharmacokinetics in beagle dogs
- condition: beagle, iv, Dog, I.V. 1 mg/kg
parameterMeasured: half-life (h)

>  <smilesString>
CC[C@H]1CN2CCc3cc(OC)c(OC)cc3[C@@H]2C[C@@H]1C[C@H]1NCCc2cc(OC)c(OC)cc21

>  <valueUnit>
h

>  <resultNumber>
2.45

$$$$

----------
- procedureDetails: In vivo plasma pharmacokinetics in beagle dogs
- condition: beagle, po, Dog, P.O. 5 mg/kg
parameterMeasured: AUC(0-t)

>  <smilesString>
CC[C@H]1CN2CCc3cc(OC)c(OC)cc3[C@@H]2C[C@@H]1C[C@H]1NCCc2cc(OC)c(OC)cc21

>  <parameterMeasured>
AUC(0-t)

>  <result>
1550 ng·h/mL

$$$$

----------
- procedureDetails: in vivo
- condition: mouse, iv, 1 mg/kg, T1/2, mice, I.V. 1 mg/kg, Lung

>  <smilesString>
CC[C@H]1CN2CCc3cc(OC)c(OC)cc3[C@@H]2C[C@@H]1C[C@H]1NCCc2cc(OC)c(OC)cc21

>  <half-life / h>
11.5

$$$$

----------
- procedureDetails: In vivo plasma pharmacokinetics in rats
- Design: species or system Sprague-Dawley rats
- condition: Sprague-Dawley, po, Rat, P.O. 10 mg/kg, read-out: MRT0-t

>  <molecule>
CC[C@H]1CN2CCc3cc(OC)c(OC)cc3[C@@H]2C[C@@H]1C[C@H]1NCCc2cc(OC)c(OC)cc21 [Emetine]

>  <valueUnit>
h

>  <MRT last>
11.6

$$$$
